The origin of these recorded values is ChEMBL document CHEMBL4513216.

system: Plasmodium falciparum; assay: Screen against P. falciparum Asexual Blood Stage (ABS), at 5uM; type: functional, Dd2; settings: tested at 5 uM
About 2,100 (3.2%) of roughly 65,000 compounds showed an effect of 50% or more. The median lay at about -52%. Only a selection was taken, and strong results are over-represented in it overall.
INHIBITION: recorded values
observed-property: INHIBITION (%)

INSERT INTO assay_data (compound, assay_target, unit_descriptor, numeric_readout) VALUES
  ('COc1cc(CNCC(O)c2ccccc2F)cc2c1OCO2 (centres undefined)', 'Plasmodium falciparum', '%', 78),
  ('Cc1cc(N2CCC(O)(CN(C)C)C2)c2cc3c(cc2n1)OCO3 (centres undefined)', 'Plasmodium falciparum', '%', 89.9),
  ('CC(CNC(=O)c1cc(Cl)ccc1I)N1CCCC1 (centres undefined)', 'Plasmodium falciparum', '%', 71.1),
  ('CNc1ncccc1CN1CCN2CCN(C)CC2C1 (centres undefined)', 'Plasmodium falciparum', '%', -92.1),
  ('CC(Cn1cccn1)NCc1csc(-c2cccs2)n1 (centres undefined)', 'Plasmodium falciparum', '%', -268),
  ('CCC[C@H]1CN(S(=O)(=O)c2ccc(CC)s2)C[C@@H]1N', 'Plasmodium falciparum', '%', 75.8),
  ('Cc1n[nH]c2c1C(c1ccc(Cl)cc1)SCC(=O)N2 (centres undefined)', 'Plasmodium falciparum', '%', -12.6),
  ('COCC(O)CN(C)c1ccnc2cc(Br)ccc12 (centres undefined)', 'Plasmodium falciparum', '%', 94.4),
  ('Cn1cccc1C(=O)N1CCN2C[C@H](Oc3cccnc3)C[C@H]2C1', 'Plasmodium falciparum', '%', 30.4),
  ('CCC[C@H]1CN(S(=O)(=O)c2c(C)noc2C)C[C@@H]1N', 'Plasmodium falciparum', '%', 82.5),
  ('COc1cccc(-c2nc(CNCCCn3cccn3)cs2)c1', 'Plasmodium falciparum', '%', 76.3),
  ('CC(=O)C1(c2ccccc2)CCN(C(=O)c2ccc3nnnn3c2)CC1', 'Plasmodium falciparum', '%', -106),
  ('CCc1nc(CNC(C)Cn2cccn2)cs1 (centres undefined)', 'Plasmodium falciparum', '%', -78.5),
  ('CC(C)n1ncc2c1NC(=O)CC21C(=O)Nc2c(Cl)ccc(Cl)c21 (centres undefined)', 'Plasmodium falciparum', '%', 83.5),
  ('Cc1cc(CN2C[C@@H]3COC[C@]3(CNC(=O)N(C)C)C2)no1', 'Plasmodium falciparum', '%', -94.8),
  ('COc1ccc(C(=O)C2CCCN(Cc3ccncc3)C2)c(OC)c1 (centres undefined)', 'Plasmodium falciparum', '%', -17.9),
  ('CCOCC(O)CN1CCN(C(=O)Cc2ccc(C)nc2)CC1 (centres undefined)', 'Plasmodium falciparum', '%', -7.76),
  ('OC(COCc1ccc(Cl)cc1)CN1CCC(c2ccn[nH]2)CC1 (centres undefined)', 'Plasmodium falciparum', '%', 70.9),
  ('Cc1nc(CN2CCN3C[C@H](Oc4cncnc4)C[C@H]3C2)cs1', 'Plasmodium falciparum', '%', -50.1),
  ('COCCN1CCO[C@H]2CCN(C(=O)c3ccnnc3)CC[C@@H]21', 'Plasmodium falciparum', '%', -39.1),
  ('O=C(Nc1ccc(Cl)cn1)C1CCCN(CCc2ccncc2)C1 (centres undefined)', 'Plasmodium falciparum', '%', 71.9),
  ('COc1ccc(Cl)cc1CC(=O)N1CCN(CC(C)O)CC1 (centres undefined)', 'Plasmodium falciparum', '%', -132),
  ('Cc1cccc2cc(CN3CCCN4CCC[C@H]4C3)c(=O)[nH]c12', 'Plasmodium falciparum', '%', -45.3),
  ('Cc1cc(N2CCCC(O)(CN(C)C)C2)c2cc3c(cc2n1)OCO3 (centres undefined)', 'Plasmodium falciparum', '%', 80.2);
